# experimental-system: B1-AR (Homo sapiens)
# Construct: expressed in transfected cells; host or cells: CHO-K1
# Sequence (P08588 whole entry, species assumed): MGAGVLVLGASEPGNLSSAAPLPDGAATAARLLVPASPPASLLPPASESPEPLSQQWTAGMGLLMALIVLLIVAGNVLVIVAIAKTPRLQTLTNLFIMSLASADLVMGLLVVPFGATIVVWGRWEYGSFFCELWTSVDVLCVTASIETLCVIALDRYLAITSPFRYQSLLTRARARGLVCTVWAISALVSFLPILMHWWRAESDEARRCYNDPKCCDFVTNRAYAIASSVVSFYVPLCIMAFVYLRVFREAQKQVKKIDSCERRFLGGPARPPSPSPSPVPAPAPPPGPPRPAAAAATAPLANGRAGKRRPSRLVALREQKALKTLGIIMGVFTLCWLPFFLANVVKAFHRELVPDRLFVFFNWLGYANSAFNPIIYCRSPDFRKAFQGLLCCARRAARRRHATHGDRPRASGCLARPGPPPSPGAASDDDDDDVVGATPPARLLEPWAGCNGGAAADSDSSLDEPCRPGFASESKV
# test-name: cAMP Gs dynamic HTRF assay, cells expressing beta-adrenergic receptor (CHO-K1), B1-AR
# Format: cell-based
# condition-notes: cAMP HTRF, read-out: pEC50 [B1-AR] (converted)
# Experimental: cAMP homogeneous time-resolved fluorescence (HTRF): experimental methods. Compound efficacy is determined using the cAMP Gs dynamic HTRF assay (Cisbio, catalog #62AM4PEC) largely following the manufacturer's instructions, also detailed below. Standard serial dilution curves are 10-point, 5-fold dilutions starting from a highest concentration of 10 μM. […]
result-type: EC50

Answered examples (3):
* O[C@@H](CNCC1CC1)c1ccc(F)c2[nH]ncc12 | < 10 nM
* CCC(C)(C)NC[C@H](O)c1cc(C#N)cc2[nH]ncc12 | 100 to 1000 nM
* Cn1ccc(CNC[C@H](O)c2cccc3[nH]ncc23)n1 | 100 to 1000 nM

// lookup EC50 | system=B1-AR (Homo sapiens) | key= "O[C@@H](CNC1CCC1)c1ccc(F)c2[nH]ncc12"
< 10 nM

Quick check: EC50 on B1-AR (Homo sapiens), item "C[C@@H](NC[C@H](O)c1cccc2[nH]ncc12)C(C)(C)C" ?
10 to 100 nM

Recall the recorded EC50 for "C[C@H](NC[C@H](O)c1cccc2[nH]ncc12)C(C)(C)C" with B1-AR (Homo sapiens) and state it.
100 to 1000 nM

Fill in the recorded EC50 for this compound, with B1-AR (Homo sapiens) as test system: "CC1(NC[C@H](O)c2cccc3[nH]ncc23)CC1"
< 10 nM

So what EC50 did "Cc1cc([C@@H](O)CNC(C)(C)C)c2cn[nH]c2n1" get with B1-AR (Homo sapiens)?
10 to 100 nM

Which measured EC50 belongs to "CC(C)(C)C(C)(C)NC[C@H](O)c1cc(C#N)cc2[nH]ncc12" , tested on B1-AR (Homo sapiens)?
> 1000 nM

Give recorded EC50 with B1-AR (Homo sapiens) for the following compound: "CC1(N[C@H](CO)c2cncc3[nH]ncc23)CC1"
> 1000 nM

Form field: EC50 recorded for "Cn1ccc(CNC[C@H](O)c2cccc3[nH]nc(F)c23)n1" with B1-AR (Homo sapiens) (enter value)
100 to 1000 nM

So what EC50 did "CC1(NC[C@H](O)c2ccc(Cl)c3[nH]ncc23)CC1" get with B1-AR (Homo sapiens)?
< 10 nM

Quick check: EC50 on B1-AR (Homo sapiens), item "Cn1nc(F)c2c([C@@H](O)CNC(C)(C)C)cccc21" ?
< 10 nM

EC50 of "CC[C@H](C)NC[C@H](O)c1cccc2[nH]ncc12" on B1-AR (Homo sapiens)?
10 to 100 nM

Notebook entry, B1-AR (Homo sapiens) assay: EC50 of "CC(C)(C)NC[C@H](O)c1ccc(N)nn1" = ?
10 to 100 nM

What EC50 appears in the records for this compound with B1-AR (Homo sapiens)? "CC(C)(CO)NC[C@H](O)c1cncc2[nH]ncc12"
> 1000 nM

Return EC50 measured with B1-AR (Homo sapiens) given this compound: "CC(C)(C)NC[C@H](O)c1cc2cccnc2cc1Cl"
100 to 1000 nM

Entry "Cc1n[nH]c2cccc([C@@H](O)CNCC(C)C)c12" , system B1-AR (Homo sapiens): what EC50 was measured?
> 1000 nM

// lookup EC50 | system=B1-AR (Homo sapiens) | key= "CC[C@@H](C)NC[C@H](O)c1cc(F)cc2[nH]ncc12"
< 10 nM

Query for B1-AR (Homo sapiens): what EC50 does the record show for "CC(C)(NC[C@H](O)c1ccc(F)c2[nH]ncc12)C1CC1" ?
< 10 nM
